All figures here come from patent US20220409629A1.

Attribute: C 8 h
Assay: Rat pharmacokinetics in vivo
Conditions: male Sprague Dawley rats, 8 h, doses 1 mg/kg (IV) and 10 mg/kg (PO)

Example results:
>>> observed_value("O=C(N[C@H]1N=C(c2ccccc2)c2cccc(F)c2NC1=O)c1cnn(C2CCOCC2)c1-c1ccc(NC2CC2)nc1F")
"385 ng/mL"
>>> observed_value("CCn1ncc(C(=O)N[C@H]2N=C(c3ccccc3)c3ccccc3NC2=O)c1-c1ccc(NC2CC2)nc1F")
"470 ng/mL"

May I ask what C 8 h has been recorded for CC(C)Nc1ccc(-c2c(C(=O)N[C@H]3N=C(c4ccccc4)c4ccccc4NC3=O)cnn2C2CCOCC2)c(F)n1 ? 146 ng/mL

May I ask what C 8 h has been recorded for CCn1cc(C(=O)N[C@H]2N=C(c3ccccc3)c3ccccc3NC2=O)c(-c2ccc(NC3CC3)nc2F)n1 ? 294 ng/mL

May I ask what C 8 h has been recorded for CC(C)Nc1ccc(-c2c(C(=O)N[C@H]3N=C(c4ccccc4)c4cccc(F)c4NC3=O)cnn2C2CCOCC2)c(F)n1 ? 734 ng/mL
